B1: BTBD1 (parent)
chain: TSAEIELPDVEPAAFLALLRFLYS

- Variants of: B1
- Measurement protocol: protein stability index of a GFP-peptide fusion (GPS, HEK-293T) (PSI 1-6); higher = more stable;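 further: lentivirally expressed fusions sorted by FACS into six bins by GFP to DsRed ratio, PSI derived from sequencing read proportions per bin multiplied by bin number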
- Measurement parameters: c terminus: a fixed tail appended
Value kind: protein stability index
Respond numerically, and do not add a unit to the figure.

Some solved entries appear below for comparison.
{"columns": ["Variant id", "Endpoint result"],
 "data": [
  ["R20S", 1.93],
  ["L16A", 2.19],
  ["R20W", 3.4],
  ["P8C", 1.49],
  ["L7A", 1.88],
  ["P8Q", 1.76],
  ["F21N", 1.69],
  ["F21Y", 1.61],
  ["F15L", 1.31],
  ["L22F", 2.61]
]}

Given the variant I5K , what is its reported protein stability index? 2.94

Which protein stability index is listed for P12E ? 2.08

Please look up its protein stability index: F21W 2.41

Give its protein stability index value. Item: T1L 2.02

Which value of protein stability index has been reported for Y23N in the records? 1.61
